biological target: coagulation factor VIII (plasma-derived, Haemoctin 500) (Homo sapiens, UniProt P00451 20-2351); test: nitrocellulose filter binding, fluorescence of filtrate; 5 mM CaCl2, 5 mM MgCl2; Tris 40 mM, NaCl 117 mM, CaCl2 5 mM, MgCl2 5 mM, pH 7.4; selection at 4 °C, Kd assay temperature not stated; FVIII 20 ng (700 pM), DNA 0.5-700 nM; details: protein: commercial; label: fluorescein via labelled reverse primer (S3) stated for the labelling PCR; the labelled strand is not explicitly specified; predicted three-branch stem-loop
Sequence (P00451 20-2351): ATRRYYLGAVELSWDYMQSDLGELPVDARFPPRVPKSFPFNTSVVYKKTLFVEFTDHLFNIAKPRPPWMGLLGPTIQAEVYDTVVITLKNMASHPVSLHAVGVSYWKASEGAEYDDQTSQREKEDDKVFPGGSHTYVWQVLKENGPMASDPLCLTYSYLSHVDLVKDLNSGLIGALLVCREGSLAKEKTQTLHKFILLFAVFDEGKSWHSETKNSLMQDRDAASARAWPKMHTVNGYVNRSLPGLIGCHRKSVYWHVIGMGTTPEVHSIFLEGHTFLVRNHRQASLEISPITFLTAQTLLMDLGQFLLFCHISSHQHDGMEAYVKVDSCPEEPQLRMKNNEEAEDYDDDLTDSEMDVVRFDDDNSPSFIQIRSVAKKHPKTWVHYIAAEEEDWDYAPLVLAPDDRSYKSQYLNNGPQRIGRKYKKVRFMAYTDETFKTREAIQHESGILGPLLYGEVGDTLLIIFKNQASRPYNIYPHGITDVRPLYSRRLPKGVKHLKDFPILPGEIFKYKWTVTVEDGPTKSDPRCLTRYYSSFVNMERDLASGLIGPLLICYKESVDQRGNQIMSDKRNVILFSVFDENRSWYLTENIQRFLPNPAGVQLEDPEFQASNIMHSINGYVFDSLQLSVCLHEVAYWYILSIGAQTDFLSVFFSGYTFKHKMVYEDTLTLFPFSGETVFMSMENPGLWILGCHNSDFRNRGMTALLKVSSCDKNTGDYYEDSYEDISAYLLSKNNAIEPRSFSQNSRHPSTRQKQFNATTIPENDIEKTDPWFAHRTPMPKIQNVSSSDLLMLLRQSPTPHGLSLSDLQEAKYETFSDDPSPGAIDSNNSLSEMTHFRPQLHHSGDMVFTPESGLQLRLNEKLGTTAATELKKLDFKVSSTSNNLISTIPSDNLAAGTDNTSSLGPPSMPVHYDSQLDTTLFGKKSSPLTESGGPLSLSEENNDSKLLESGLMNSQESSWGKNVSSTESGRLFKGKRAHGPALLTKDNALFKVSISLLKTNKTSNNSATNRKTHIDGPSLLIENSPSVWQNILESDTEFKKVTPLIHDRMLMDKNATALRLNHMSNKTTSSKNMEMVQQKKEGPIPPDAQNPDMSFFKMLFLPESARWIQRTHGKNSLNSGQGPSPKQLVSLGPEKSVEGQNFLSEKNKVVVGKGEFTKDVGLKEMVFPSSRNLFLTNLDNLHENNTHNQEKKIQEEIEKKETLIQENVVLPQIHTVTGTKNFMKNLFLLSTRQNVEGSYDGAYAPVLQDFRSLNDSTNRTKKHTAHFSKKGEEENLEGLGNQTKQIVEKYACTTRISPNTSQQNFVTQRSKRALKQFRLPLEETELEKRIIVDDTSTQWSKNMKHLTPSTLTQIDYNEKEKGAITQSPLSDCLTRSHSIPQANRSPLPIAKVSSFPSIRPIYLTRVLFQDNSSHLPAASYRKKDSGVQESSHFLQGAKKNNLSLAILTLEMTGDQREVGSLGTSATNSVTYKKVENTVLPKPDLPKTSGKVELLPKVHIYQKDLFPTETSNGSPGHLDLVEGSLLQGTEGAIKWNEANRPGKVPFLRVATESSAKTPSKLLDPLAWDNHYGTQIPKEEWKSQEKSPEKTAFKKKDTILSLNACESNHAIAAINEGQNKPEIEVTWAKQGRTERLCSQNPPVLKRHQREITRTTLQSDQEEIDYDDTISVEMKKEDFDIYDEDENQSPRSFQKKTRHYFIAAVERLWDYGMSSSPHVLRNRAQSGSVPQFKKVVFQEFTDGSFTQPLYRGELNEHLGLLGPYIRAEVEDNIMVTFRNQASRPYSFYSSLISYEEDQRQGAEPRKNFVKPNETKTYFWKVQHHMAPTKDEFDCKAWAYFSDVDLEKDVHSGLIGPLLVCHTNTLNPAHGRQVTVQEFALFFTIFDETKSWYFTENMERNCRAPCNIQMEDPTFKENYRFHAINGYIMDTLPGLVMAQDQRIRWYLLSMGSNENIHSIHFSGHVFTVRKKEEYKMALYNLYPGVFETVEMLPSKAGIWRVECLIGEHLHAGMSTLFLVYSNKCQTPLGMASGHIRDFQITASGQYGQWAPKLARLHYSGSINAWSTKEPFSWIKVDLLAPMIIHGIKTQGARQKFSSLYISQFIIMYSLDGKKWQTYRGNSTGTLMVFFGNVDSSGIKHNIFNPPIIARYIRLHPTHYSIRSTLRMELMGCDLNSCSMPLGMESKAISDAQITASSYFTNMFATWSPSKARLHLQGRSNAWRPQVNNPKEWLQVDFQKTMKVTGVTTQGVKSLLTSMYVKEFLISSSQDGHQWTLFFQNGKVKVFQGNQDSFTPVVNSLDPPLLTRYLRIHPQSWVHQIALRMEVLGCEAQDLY
Quantity Measured: pKd
One number for each entry, as −log10 of the molar value.

Ask: I am curious: what pKd value has been reported for FVIII aptamer (full-length clone, 77 nt) (ssDNA) DNA: GGTGTTACTCTTCATGTGGATCCGTACGTCCTGGGCTTCTTGATCGTCAGCCGAAGAATTCAGCACCCTAGCCTCGT ?
Reply: 6.03

The reported numbers originate from paper PMC5603883.
